Assay System: Proto-oncogene tyrosine-protein kinase receptor Ret (Homo sapiens) (UniProt P07949)
Sequence (P07949 whole entry): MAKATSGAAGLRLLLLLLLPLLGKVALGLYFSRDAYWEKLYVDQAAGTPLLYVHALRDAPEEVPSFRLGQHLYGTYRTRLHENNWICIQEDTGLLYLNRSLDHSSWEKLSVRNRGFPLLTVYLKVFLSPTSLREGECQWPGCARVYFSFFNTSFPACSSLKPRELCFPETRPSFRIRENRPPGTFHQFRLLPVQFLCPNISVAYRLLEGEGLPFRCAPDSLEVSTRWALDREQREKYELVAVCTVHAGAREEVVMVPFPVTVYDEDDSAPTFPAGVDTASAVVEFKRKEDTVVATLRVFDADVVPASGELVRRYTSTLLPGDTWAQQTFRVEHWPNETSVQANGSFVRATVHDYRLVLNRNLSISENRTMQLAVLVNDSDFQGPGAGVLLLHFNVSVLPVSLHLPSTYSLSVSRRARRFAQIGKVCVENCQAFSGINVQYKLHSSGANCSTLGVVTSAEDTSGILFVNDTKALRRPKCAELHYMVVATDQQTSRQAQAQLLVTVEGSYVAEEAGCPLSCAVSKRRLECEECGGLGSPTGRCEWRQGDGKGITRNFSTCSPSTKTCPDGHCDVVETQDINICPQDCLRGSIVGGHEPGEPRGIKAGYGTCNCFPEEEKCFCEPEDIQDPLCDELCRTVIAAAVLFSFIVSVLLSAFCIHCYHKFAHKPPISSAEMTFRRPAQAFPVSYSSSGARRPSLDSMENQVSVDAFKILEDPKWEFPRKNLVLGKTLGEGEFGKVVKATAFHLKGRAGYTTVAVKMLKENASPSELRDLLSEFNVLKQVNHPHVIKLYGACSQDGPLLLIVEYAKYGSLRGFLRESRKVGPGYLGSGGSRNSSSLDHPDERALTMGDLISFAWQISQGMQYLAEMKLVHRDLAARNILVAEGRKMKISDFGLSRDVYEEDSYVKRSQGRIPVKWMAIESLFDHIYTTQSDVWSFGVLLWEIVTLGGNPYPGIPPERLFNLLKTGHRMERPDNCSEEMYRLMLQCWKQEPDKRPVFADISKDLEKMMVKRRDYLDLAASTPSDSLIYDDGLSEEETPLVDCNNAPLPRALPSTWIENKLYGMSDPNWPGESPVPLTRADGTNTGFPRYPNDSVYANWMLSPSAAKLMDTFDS
Run Parameters: at 1 µM
Measured Parameter: residual activity

Answered examples (2):
Cc1cc2ncc(-c3ccccc3)nc2cc1C 96%
N#CCCc1ccc2c(c1)-c1[nH]c3ccc([N+](=O)[O-])cc3c1CC(=O)N2 80%

Need residual activity, item CNc1cc2c(Nc3cccc(Br)c3)ncnc2cn1
67%

Need residual activity, item c1ccc2c(-c3ccncc3)c[nH]c2c1
103%

Need residual activity, item O=Nc1c(-c2c(O)[nH]c3ccccc23)[nH]c2ccccc12
1%

Need residual activity, item O=C(Nc1cccc(Nc2nccc(Nc3cccc(C(F)(F)F)c3)n2)c1)C1CC1
74%

Need residual activity, item CO[C@H]1C[C@@H]2CC[C@@H](C)[C@@](O)(O2)C(=O)C(=O)N2CCCC[C@H]2C(=O)O[C@H]([C@H](C)C[C@@H]2CC[C@@H](O)[C@H](OC)C2)CC(=O)[C@H](C)/C=C(\C)[C@@H](O)[C@@H](OC)C(=O)[C@H](C)C[C@H](C)/C=C/C=C/C=C/1C
102%

====

# residual activity per entry
Assay System: Ephrin type-B receptor 3 (Homo sapiens)
Run Parameters: at 1 µM
Description: Millipore: Percentage of residual kinase activity of EPHB3 at 1uM relative to control. Control inhibitor: PP2 at 30.0uM. Buffer: 8 mM MOPS pH 7.0, 0.2 mM EDTA, 10 mM MnCl2

Answered examples (4):
Compound	residual activity
COc1cc2ncnc(Nc3ccc(O)c(Br)c3)c2cc1OC	99% (inactive)
Nc1n[nH]c2nnc(-c3c(-c4ccccc4)nn4ccccc34)cc12	101% (inactive)
O=C1NC(=O)c2c1c1c3ccccc3[nH]c1c1[nH]c3cc(Br)ccc3c21	107% (inactive)
CC(C)n1cnc2/c(=N/c3cccc(Cl)c3)nc(NCCO)[nH]c21	108% (inactive)

Need residual activity, item CO[C@H]1C[C@@H]2CC[C@@H](C)[C@@](O)(O2)C(=O)C(=O)N2CCCC[C@H]2C(=O)O[C@H]([C@H](C)C[C@@H]2CC[C@@H](O)[C@H](OC)C2)CC(=O)[C@H](C)/C=C(\C)[C@@H](O)[C@@H](OC)C(=O)[C@H](C)C[C@H](C)/C=C/C=C/C=C/1C
100% (inactive)

Need residual activity, item O=C1NC(=O)/C(=C/c2ccc3c(c2)OC(F)(F)O3)S1
125% (inactive)

Need residual activity, item CO[C@H]1[C@@H](OC)C[C@H](C)[C@@H](OC)C2=CC(=O)C=C(NC(=O)/C(C)=C/C=C/[C@H](OC)[C@@H](OC(N)=O)/C(C)=C/[C@@H]1C)C2=O
111% (inactive)

Need residual activity, item CCN(CC)CCCCN1c2ccccc2Oc2ccc(Cl)cc21
106% (inactive)

Need residual activity, item CCC(=O)Nc1ccc2ncnc(Nc3cccc(Br)c3)c2c1
111% (inactive)

Need residual activity, item C[C@@H](N)[C@H]1CC[C@H](C(=O)Nc2ccncc2)CC1
111% (inactive)

Need residual activity, item Cc1cc(Nc2nc(-c3ccccc3)nc3ccccc23)n[nH]1
111% (inactive)

Need residual activity, item O=C1Nc2cc(Br)ccc2/C1=C1/Nc2ccccc2/C1=N\O
100% (inactive)

Need residual activity, item Oc1n[nH]c2nnc(-c3c(-c4ccccc4)nn4ccccc34)cc12
109% (inactive)

Need residual activity, item O=c1cc(-c2cccc3c2Sc2ccccc2S3)oc(N2CCOCC2)c1
119% (inactive)

Need residual activity, item O=c1c2ccccc2[nH]c(=S)n1CCN1CCC(=C(c2ccc(F)cc2)c2ccc(F)cc2)CC1
112% (inactive)

Need residual activity, item CC[n+]1c(/C=C/N(C)c2ccccc2)n(-c2ccccc2)c2ccc(-c3nc4ccccc4s3)cc21
131% (inactive)
